Target: PARP1 (Homo sapiens)
Sequence (P09874 whole entry): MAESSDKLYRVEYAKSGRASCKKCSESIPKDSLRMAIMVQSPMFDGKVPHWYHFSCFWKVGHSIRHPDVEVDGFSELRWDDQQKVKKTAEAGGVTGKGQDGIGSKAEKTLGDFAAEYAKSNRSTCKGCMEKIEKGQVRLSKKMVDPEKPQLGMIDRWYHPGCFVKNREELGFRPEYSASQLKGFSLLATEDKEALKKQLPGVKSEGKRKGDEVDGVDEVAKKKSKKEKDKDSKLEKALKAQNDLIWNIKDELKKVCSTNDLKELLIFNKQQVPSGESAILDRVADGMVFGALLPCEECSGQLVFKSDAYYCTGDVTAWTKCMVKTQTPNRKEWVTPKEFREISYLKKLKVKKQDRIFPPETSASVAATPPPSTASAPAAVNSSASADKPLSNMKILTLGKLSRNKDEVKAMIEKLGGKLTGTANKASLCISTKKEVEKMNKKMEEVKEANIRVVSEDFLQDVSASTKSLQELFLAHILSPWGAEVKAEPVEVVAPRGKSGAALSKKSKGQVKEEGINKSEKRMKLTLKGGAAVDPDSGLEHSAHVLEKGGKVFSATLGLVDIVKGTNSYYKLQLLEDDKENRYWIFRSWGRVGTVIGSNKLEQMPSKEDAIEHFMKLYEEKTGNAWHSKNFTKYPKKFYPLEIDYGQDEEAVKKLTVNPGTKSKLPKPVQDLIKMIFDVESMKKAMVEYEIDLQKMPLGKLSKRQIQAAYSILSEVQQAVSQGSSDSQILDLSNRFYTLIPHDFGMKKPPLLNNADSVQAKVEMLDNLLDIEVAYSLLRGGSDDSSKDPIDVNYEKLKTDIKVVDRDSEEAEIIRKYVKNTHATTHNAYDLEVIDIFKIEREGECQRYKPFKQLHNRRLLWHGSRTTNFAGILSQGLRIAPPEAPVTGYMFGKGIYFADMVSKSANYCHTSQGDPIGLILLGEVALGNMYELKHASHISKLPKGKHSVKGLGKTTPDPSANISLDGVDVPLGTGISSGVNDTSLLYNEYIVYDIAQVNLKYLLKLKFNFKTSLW
Assay: Inhibition of PARP1 enzyme activity (ELISA, chemiluminescence)
Format: biochemical
Conditions: ratio of PARP2 IC50 to PARP1 IC50
Exercise: for every item that follows, state its recorded Selectivity PARP2/PARP1.
Numbers only.

Some compounds with known Selectivity PARP2/PARP1 results, for comparison:
CNC(=O)c1ccc(C2=CCN(Cc3cc(OC(F)F)c4nc(C)c(=O)[nH]c4c3)CC2)c(F)n1
248.4
CNC(=O)c1ccc(N2CCN(Cc3cc(Oc4ccncc4)c4nc(C)c(=O)[nH]c4c3)CC2)c(F)n1
217.3
CC#Cc1cc(CN2CC=C(c3ccc(C(=O)NC)nc3F)CC2)c(F)c2[nH]c(=O)c(C)nc12
4113.1
CNC(=O)c1ccc(N2CCN(Cc3cc(-c4ccccc4F)c4nc(C)c(=O)[nH]c4c3)CC2)c(F)n1
657.2
CCNNC(=O)c1ccc(N2CCN(Cc3cc(OC(F)F)c4nc(C)c(=O)[nH]c4c3)CC2)c(F)n1
59.6

Switching to the query record.
Which value of Selectivity PARP2/PARP1 has been reported for `CNC(=O)c1ccc(N2CCN(Cc3cc(OC(F)(F)F)c4nc(C)c(=O)[nH]c4c3)CC2)c(C)n1` in the records?
46.9
